Tested on: Caco-2
assay_comment: MTT anti-proliferative assay, Caco-2
Type: cell-based
condition_label: Homo sapiens; Caco-2 cell line, MTT; read-out: Anti-proliferative activity (IC50 μM) Caco2
IC50 vs 70 µM: less than gives label 1; not less than gives label 0.

Criterion: IC50 strictly below 70 µM. Is it met by O=C(CN1C(=O)SC(=C2C(=O)Nc3ccccc32)C1=O)NCCc1ccccc1 [Compound 14c] ?
label 0

Criterion: IC50 strictly below 70 µM. Is it met by COc1ccc2[nH]c(=O)c(/C=C3\SC(=O)N(CC(=O)Nc4cc(Cl)ccc4Cl)C3=O)cc2c1 [Compound 10b] ?
label 1

---

measured_target: VEGFR-2 (Homo sapiens, UniProt P35968)
Construct: purchased
Sequence (P35968 20-1356): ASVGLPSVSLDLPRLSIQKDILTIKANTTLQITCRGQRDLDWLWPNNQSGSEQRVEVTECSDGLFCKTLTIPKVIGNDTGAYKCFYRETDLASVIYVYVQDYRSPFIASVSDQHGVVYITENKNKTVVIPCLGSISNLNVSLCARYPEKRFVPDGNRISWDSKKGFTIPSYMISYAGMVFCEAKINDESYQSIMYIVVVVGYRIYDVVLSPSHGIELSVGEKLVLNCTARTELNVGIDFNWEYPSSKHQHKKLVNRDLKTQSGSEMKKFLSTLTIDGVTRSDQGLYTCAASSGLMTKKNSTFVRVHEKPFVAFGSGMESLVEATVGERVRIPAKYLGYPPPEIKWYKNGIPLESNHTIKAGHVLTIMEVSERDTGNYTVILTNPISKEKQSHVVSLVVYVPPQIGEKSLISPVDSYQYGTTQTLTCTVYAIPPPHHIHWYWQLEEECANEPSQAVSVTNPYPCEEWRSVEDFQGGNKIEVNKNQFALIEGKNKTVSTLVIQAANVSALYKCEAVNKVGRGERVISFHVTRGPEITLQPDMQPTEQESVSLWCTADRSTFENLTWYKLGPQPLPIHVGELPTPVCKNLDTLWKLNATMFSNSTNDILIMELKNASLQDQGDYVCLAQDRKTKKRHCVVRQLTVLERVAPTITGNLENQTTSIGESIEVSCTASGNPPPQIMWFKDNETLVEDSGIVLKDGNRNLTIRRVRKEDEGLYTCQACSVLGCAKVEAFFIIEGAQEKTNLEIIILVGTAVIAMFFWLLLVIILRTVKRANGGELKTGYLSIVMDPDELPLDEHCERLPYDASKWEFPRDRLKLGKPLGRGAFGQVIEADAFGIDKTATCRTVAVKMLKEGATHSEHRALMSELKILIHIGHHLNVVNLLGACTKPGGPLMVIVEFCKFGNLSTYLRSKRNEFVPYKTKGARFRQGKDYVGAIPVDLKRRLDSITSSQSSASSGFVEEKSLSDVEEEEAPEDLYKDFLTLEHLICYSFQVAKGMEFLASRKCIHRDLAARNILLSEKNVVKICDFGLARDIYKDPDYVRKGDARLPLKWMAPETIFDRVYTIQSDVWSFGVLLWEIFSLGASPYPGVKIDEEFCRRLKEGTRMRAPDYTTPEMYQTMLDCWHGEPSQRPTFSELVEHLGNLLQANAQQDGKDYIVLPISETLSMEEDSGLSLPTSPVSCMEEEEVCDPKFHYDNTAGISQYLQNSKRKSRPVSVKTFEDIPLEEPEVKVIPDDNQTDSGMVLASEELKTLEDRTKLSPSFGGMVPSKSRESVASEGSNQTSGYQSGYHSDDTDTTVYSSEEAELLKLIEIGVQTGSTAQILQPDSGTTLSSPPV
assay_comment: In vitro VEGFR-2 inhibition (VEGFR-2 ELISA kit)
Format: biochemical
condition_label: dose-response curve fit, raw data S.5
Protocol: Compounds 10a, b and 14a-c were evaluated for their VEGFR-2inhibitory activity. VEGFR-2 ELISA kit was used in this test as described in S.1.3. Section in S1 File. […] S.1.3. In vitro VEGFR-2 kinase assay All the synthesized compounds were tested for its inhibitory activity against VEGFR-2. […] 50 μL of the stop solution was added, then read at 450 nm immediately. The standard curve was drawn, concentrations on the X-axis and the absorbance
parameter: LogIC50 (best-fit value)

Use the examples below as a reference point.
molecule	endpoint_value
O=C(CN1C(=O)SC(=C2C(=O)Nc3ccccc32)C1=O)NCCc1ccccc1 [Compound 14c]	1.911 Log (nM)
O=C(CN1C(=O)SC(=C2C(=O)Nc3ccccc32)C1=O)Nc1cc(Cl)ccc1Cl [Compound 14b]	1.934 Log (nM)
COc1ccc2[nH]c(=O)c(/C=C3\SC(=O)N(CC(=O)Nc4cc(Cl)ccc4Cl)C3=O)cc2c1 [Compound 10b]	2.216 Log (nM)
COc1ccc2[nH]c(=O)c(/C=C3\SC(=O)N(CC(=O)Nc4ccc(Cl)cc4)C3=O)cc2c1 [Compound 10a]	1.814 Log (nM)

# evaluate next
Tested on VEGFR-2 (Homo sapiens, UniProt P35968), the item O=C(CN1C(=O)SC(=C2C(=O)Nc3ccccc32)C1=O)Nc1ccc(Cl)cc1 [Compound 14a] showed LogIC50 (best-fit value) equal to 1.961 Log (nM)
